Recorded S.I. (W2) by entry
test system: Plasmodium falciparum (W2 clone), chloroquine-resistant; experiment: Plasmodium growth inhibition, parasite lactate dehydrogenase assay (Malstat); format: cell-based; conditions: selective toxicity index, Vero versus W2; value in brackets

# example entries with known answers
CCC1OC(=O)C(C)C(=O)C(C)C(OC2OC(C)CC(N(C)Cc3ccc(-c4cn(CCCCCCCC(=O)NO)nn4)cc3)C2O)C(C)(OC)CC(C)C2=NCCN3C(=O)OC1(C)C3C2C (centres unmarked) [Compound 56c] = > 3.2
CCC1OC(=O)C(C)C(=O)C(C)C(OC2OC(C)CC(N(C)Cc3ccc(-c4cn(CCCCCCC(=O)NO)nn4)cc3)C2O)C(C)(OC)CC(C)C2=NCCN3C(=O)OC1(C)C3C2C (centres unmarked) [Compound 56b] = > 39.7

Form field S.I. (W2), entry CCC1OC(=O)C(C)C(=O)C(C)C(OC2OC(C)CC(N(C)Cc3ccc(-c4cn(CCCCCCCCCC(=O)NO)nn4)cc3)C2O)C(C)(OC)CC(C)C2=NCCN3C(=O)OC1(C)C3C2C (centres unmarked) [Compound 56e] : > 5.7

Form field S.I. (W2), entry C=C1C[C@H](CC)C(C)(C)[C@H](C)[C@@H](C)N(C)C[C@H](C)CC(C)(C)[C@H](C[C@@H]2C[C@H](C)C[C@H](N(C)Cc3ccc(C(C)C)cc3)[C@H]2C)[C@@H](C)[C@H](C)[C@H]1C : > 2.8

Form field S.I. (W2), entry CCC1OC(=O)C(C)C(=O)C(C)C(OC2OC(C)CC(N(C)Cc3ccc(-c4cn(CCCCCCCCC(=O)NO)nn4)cc3)C2O)C(C)(OC)CC(C)C2=NCCN3C(=O)OC1(C)C3C2C (centres unmarked) [Compound 56d] : > 3.7

----------
Recorded IC50 by entry
target: HDAC6 (Homo sapiens (Human), UniProt Q9UBN7); experiment: SAMDI mass spectrometry HDAC inhibition assay; type: biochemical; conditions: Table 14; read-out: HDAC 6 (nm)
Sequence (Q9UBN7 whole entry, canonical isoform): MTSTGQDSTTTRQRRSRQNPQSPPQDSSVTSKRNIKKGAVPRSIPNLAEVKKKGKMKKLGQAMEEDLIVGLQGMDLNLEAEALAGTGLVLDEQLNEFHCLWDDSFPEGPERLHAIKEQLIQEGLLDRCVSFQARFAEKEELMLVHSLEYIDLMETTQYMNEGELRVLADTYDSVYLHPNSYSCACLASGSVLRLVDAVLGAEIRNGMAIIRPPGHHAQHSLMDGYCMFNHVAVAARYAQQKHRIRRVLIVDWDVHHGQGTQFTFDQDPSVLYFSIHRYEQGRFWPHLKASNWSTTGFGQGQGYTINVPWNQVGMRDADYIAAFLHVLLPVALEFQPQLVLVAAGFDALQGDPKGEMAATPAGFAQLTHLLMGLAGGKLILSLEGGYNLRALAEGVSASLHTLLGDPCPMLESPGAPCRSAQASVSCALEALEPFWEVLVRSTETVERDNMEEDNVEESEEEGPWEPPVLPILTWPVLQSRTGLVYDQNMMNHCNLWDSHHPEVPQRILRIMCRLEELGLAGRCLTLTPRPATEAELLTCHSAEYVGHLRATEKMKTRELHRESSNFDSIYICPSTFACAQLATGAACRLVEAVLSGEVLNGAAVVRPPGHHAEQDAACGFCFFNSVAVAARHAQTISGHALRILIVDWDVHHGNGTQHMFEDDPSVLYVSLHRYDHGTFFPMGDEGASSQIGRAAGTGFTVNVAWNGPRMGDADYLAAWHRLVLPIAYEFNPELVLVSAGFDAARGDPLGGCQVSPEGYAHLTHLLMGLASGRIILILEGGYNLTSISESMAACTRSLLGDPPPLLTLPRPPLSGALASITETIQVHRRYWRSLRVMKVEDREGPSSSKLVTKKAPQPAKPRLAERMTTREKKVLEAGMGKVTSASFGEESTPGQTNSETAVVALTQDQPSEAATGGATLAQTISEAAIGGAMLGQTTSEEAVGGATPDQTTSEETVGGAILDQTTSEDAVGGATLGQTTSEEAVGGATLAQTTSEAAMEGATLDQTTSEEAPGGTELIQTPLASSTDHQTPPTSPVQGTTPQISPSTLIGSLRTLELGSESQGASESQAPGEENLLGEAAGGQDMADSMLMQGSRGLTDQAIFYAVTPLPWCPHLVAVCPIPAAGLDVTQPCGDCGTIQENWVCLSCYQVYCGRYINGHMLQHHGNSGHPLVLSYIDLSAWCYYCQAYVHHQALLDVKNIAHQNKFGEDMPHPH
# value in nM; strip the unit string

Form field IC50, entry Oc1cccn(CCCCCCCn2cc(-c3ccccc3)nn2)c1=S [Compound 162f] : 955

Form field IC50, entry Cc1ccccc1-c1ccc(Cn2cccc(O)c2=S)cc1 [Compound 149f] : 306

Form field IC50, entry Oc1cccn(CCCCCn2cc(-c3ccccc3)nn2)c1=S [Compound 162d] : 911

Form field IC50, entry Oc1cccn(Cc2ccc(Cn3cc(-c4ccccc4)nn3)cc2)c1=S [Compound 168] : 534

----------
Recorded S.I. D6 by entry
test system: Plasmodium falciparum (D6 clone), chloroquine-sensitive; test: Plasmodium growth inhibition, parasite lactate dehydrogenase assay (Malstat); format: cell-based; settings: selective toxicity index, Vero versus D6

# example entries with known answers
CCC1OC(=O)C(C)C(=O)C(C)C(OC2OC(C)CC(N(C)Cc3ccc(-c4cn(CCCCCCCCCC(=O)NO)nn4)cc3)C2O)C(C)(OC)CC(C)C2=NCCN3C(=O)OC1(C)C3C2C (stereo not drawn) [Compound 56e] = > 4.0
CCC1OC(=O)C(C)C(=O)C(C)C(OC2OC(C)CC(N(C)Cc3ccc(-c4cn(CCCCCC(=O)NO)nn4)cc3)C2O)C(C)(OC)CC(C)C2=NCCN3C(=O)OC1(C)C3C2C (stereo not drawn) [Compound 56a] = >5.0 (no value)

Now turn to the next molecule.
Form field S.I. D6, entry O=C(CCCCCCC(=O)Nc1ccccc1)NO [SAHA, suberoylanilide hydroxamic acid, reference compound] : 4.8

----------
target: HDAC6 (Homo sapiens (Human), UniProt Q9UBN7); experiment: Fluor de Lys HDAC6 inhibition; format: biochemical; conditions: ratio of IC50 HDAC6 to nuclear extract
Recorded HDAC6: Nuclear Extract Isoform Selectivity by entry
// return just the number, without any unit appended

CCC1OC(=O)C(C)C(=O)C(C)C(OC2OC(C)CC(N(C)Cc3ccc(-c4cn(CCCCCCCC(=O)NO)nn4)cc3)C2O)C(C)(OC)CC(C)C2=NCCN3C(=O)OC1(C)C3C2C (centres unmarked) [Compound 56c] = 16.4
CCC1OC(=O)C(C)C(=O)C(C)C(OC2OC(C)CC(N(C)Cc3ccc(-c4cn(CCCCCCCCCC(=O)NO)nn4)cc3)C2O)C(C)(OC)CC(C)C2=NCCN3C(=O)OC1(C)C3C2C (centres unmarked) [Compound 56e] = 15.4

Form field HDAC6: Nuclear Extract Isoform Selectivity, entry CCC1OC(=O)C(C)C(=O)C(C)C(OC2OC(C)CC(N(C)Cc3ccc(-c4cn(CCCCCCCCC(=O)NO)nn4)cc3)C2O)C(C)(OC)CC(C)C2=NCCN3C(=O)OC1(C)C3C2C (centres unmarked) [Compound 56d] : 11.7

Form field HDAC6: Nuclear Extract Isoform Selectivity, entry CCC1OC(=O)C(C)C(=O)C(C)C(OC2OC(C)CC(N(C)Cc3ccc(-c4cn(CCCCCCC(=O)NO)nn4)cc3)C2O)C(C)(OC)CC(C)C2=NCCN3C(=O)OC1(C)C3C2C (centres unmarked) [Compound 56b] : 707.5

Form field HDAC6: Nuclear Extract Isoform Selectivity, entry CCC1OC(=O)C(C)C(=O)C(C)C(OC2OC(C)CC(N(C)Cc3ccc(-c4cn(CCCCCC(=O)NO)nn4)cc3)C2O)C(C)(OC)CC(C)C2=NCCN3C(=O)OC1(C)C3C2C (centres unmarked) [Compound 56a] : 151.9

----------
system: Jurkat (T cell leukemia overexpressing HDAC8); test: Anti-cancer activity screen; format: cell-based; conditions: Homo sapiens, Jurkat, read-out: Jurkat (μm)
recordedMetric: IC50 (µM)
# value in µM; strip the unit string

Oc1cccn(Cc2cn(-c3ccccc3)nn2)c1=S [Compound 154a] = 4.68
N#Cc1cccc(-c2cn(CCCCCn3cccc(O)c3=S)nn2)c1 [Compound 167e] = 5.18
CN(C)c1ccc(-c2ccc(Cn3cccc(O)c3=S)cc2)cc1 [Compound 149g] = 10.6

The measured IC50 that N#Cc1ccccc1-c1ccc(Cn2cccc(O)c2=S)cc1 [Compound 149c] showed for Jurkat (T cell leukemia overexpressing HDAC8) is 8.95

----------
test system: Plasmodium falciparum (D6 clone), chloroquine-sensitive; experiment: Plasmodium growth inhibition, parasite lactate dehydrogenase assay (Malstat); assay type: cell-based; conditions: chloroquine-sensitive
Recorded Plasmodium falciparum (D6 clone) IC50 by entry
# value in µg/mL; strip the unit string

# example entries with known answers
CCC1OC(=O)C(C)C(=O)C(C)C(OC2OC(C)CC(N(C)Cc3ccc(-c4cn(CCCCCCCCCC(=O)NO)nn4)cc3)C2O)C(C)(OC)CC(C)C2=NCCN3C(=O)OC1(C)C3C2C (stereo not drawn) [Compound 56e] = 1.20
CCC1OC(=O)C(C)C(=O)C(C)C(OC2OC(C)CC(N(C)Cc3ccc(-c4cn(CCCCCCC(=O)NO)nn4)cc3)C2O)C(C)(OC)CC(C)C2=NCCN3C(=O)OC1(C)C3C2C (stereo not drawn) [Compound 56b] = 0.14

Form field Plasmodium falciparum (D6 clone) IC50, entry CCN(CC)CCCC(C)Nc1ccnc2cc(Cl)ccc12 (stereo not drawn) [Chloroquine, chloroquine, reference compound] : 0.011

----------
Recorded pIC50 by entry
molecular target: HDAC8 (Homo sapiens (Human)); test: Fluor de Lys HDAC8 inhibition; type: biochemical; conditions: average of three independent experiments; Table 4; read-out: HDAC 8
Sequence (Q9BY41 whole entry): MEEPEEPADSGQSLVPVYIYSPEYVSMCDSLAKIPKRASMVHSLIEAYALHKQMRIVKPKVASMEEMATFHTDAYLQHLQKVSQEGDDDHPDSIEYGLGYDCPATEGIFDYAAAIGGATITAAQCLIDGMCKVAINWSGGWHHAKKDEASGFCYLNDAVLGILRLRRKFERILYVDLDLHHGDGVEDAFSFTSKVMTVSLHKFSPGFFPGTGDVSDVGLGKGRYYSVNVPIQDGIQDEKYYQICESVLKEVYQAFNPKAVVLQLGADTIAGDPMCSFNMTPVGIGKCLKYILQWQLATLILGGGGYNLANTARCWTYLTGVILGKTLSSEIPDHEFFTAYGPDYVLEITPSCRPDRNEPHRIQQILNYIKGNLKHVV
pIC50 is defined as minus the log10 of a concentration measured in mol/L.

# example entries with known answers
CC[C@H]1OC(=O)[C@H](C)[C@@H](O)[C@H](C)[C@@H](O[C@@H]2O[C@H](C)C[C@H](N(C)Cc3ccc(-c4cn(CCCCCCC(=O)NO)nn4)cc3)[C@H]2O)[C@](C)(OC)C[C@@H](C)C(=O)[C@H](C)[C@@H](O)[C@]1(C)O [Compound 26] = 5.86
CC[C@H]1OC(=O)[C@H](C)[C@@H](O[C@H]2C[C@@](C)(OC)[C@@H](O)[C@H](C)O2)[C@H](C)[C@@H](O[C@@H]2O[C@H](C)C[C@H](N(C)Cc3ccc(-c4cn(CCCCCCC(=O)NO)nn4)cc3)[C@H]2O)[C@](C)(OC)C[C@@H](C)C(=O)[C@H](C)[C@@H](O)[C@]1(C)O [Compound 25] = 5.72
CC[C@H]1OC(=O)[C@H](C)[C@@H](O)[C@H](C)[C@@H](O[C@@H]2O[C@H](C)C[C@H](N(C)Cc3ccc(NC(=O)CCCCCCC(=O)NO)cc3)[C@H]2O)[C@](C)(O)C[C@@H](C)CN(C)[C@H](C)[C@@H](O)[C@]1(C)O [Compound 38] = 5.63
CC[C@H]1OC(=O)[C@H](C)[C@@H](O[C@H]2C[C@@](C)(OC)[C@@H](O)[C@H](C)O2)[C@H](C)[C@@H](O[C@@H]2O[C@H](C)C[C@H](N(C)Cc3ccc(NC(=O)CCCCCCC(=O)NO)cc3)[C@H]2O)[C@](C)(O)C[C@@H](C)CN(C)[C@H](C)[C@@H](O)[C@]1(C)O [Compound 36, Azithromycin-arylalkyl hydroxamic acid] = 5.18
CC[C@H]1OC(=O)[C@H](C)[C@@H](O)[C@H](C)[C@@H](O[C@@H]2O[C@H](C)C[C@H](N(C)Cc3ccc(-c4cn(CCCCCCCC(=O)NO)nn4)cc3)[C@H]2O)[C@](C)(OC)C[C@@H](C)C(=O)[C@H](C)[C@@H](O)[C@]1(C)O [Compound 28] = 5.35
CC[C@H]1OC(=O)[C@H](C)[C@@H](O[C@H]2C[C@@](C)(OC)[C@@H](O)[C@H](C)O2)[C@H](C)[C@@H](O[C@@H]2O[C@H](C)C[C@H](N(C)Cc3ccc(-c4cn(CCCCCCCC(=O)NO)nn4)cc3)[C@H]2O)[C@](C)(OC)C[C@@H](C)C(=O)[C@H](C)[C@@H](O)[C@]1(C)O [Compound 27] = 5.23

Form field pIC50, entry CC[C@H]1OC(=O)[C@H](C)[C@@H](O[C@H]2C[C@@](C)(OC)[C@@H](O)[C@H](C)O2)[C@H](C)[C@@H](O[C@@H]2O[C@H](C)C[C@H](N(C)Cc3ccc(-c4cn(CCCCCC(=O)NO)nn4)cc3)[C@H]2O)[C@](C)(OC)C[C@@H](C)C(=O)[C@H](C)[C@@H](O)[C@]1(C)O [Compound 23] : 5.40

Form field pIC50, entry CC[C@H]1OC(=O)[C@H](C)[C@@H](O)[C@H](C)[C@@H](O[C@@H]2O[C@H](C)C[C@H](N(C)Cc3ccc(-c4cn(CCCCCC(=O)NO)nn4)cc3)[C@H]2O)[C@](C)(OC)C[C@@H](C)C(=O)[C@H](C)[C@@H](O)[C@]1(C)O [Compound 24] : 5.32

Form field pIC50, entry CC[C@H]1OC(=O)[C@H](C)[C@@H](O[C@H]2C[C@@](C)(OC)[C@@H](O)[C@H](C)O2)[C@H](C)[C@@H](O[C@@H]2O[C@H](C)C[C@H](N(C)Cc3ccc(-c4cn(CCCCCCCCC(=O)NO)nn4)cc3)[C@H]2O)[C@](C)(OC)C[C@@H](C)C(=O)[C@H](C)[C@@H](O)[C@]1(C)O [Compound 29] : 4.98
